System: collagen IV NCD sulfilimine cross-link formation of PFHR9 cells
Procedure Text: Inhibition of collagen IV cross-linking in cell culture
Format: cell-based
Reported Conditions: 168 h, PFHR9 cells grown with inhibitor for 7 days, Western blot densitometry; n.a. = 50% inhibition not reached
Test Readout: IC50

Form field IC50 for item `NNC(=O)CNc1ccc(Cl)cc1` on collagen IV NCD sulfilimine cross-link formation of PFHR9 cells: ~172 µM

====

Field: inhibition at 20 µM. Provide a value for each of the compounds that follow.
Assayed System: Human peroxidasin (PXDN) (Homo sapiens)
Construct: the four immunoglobulin domains and the peroxidase domain (amino acid residue 246-1314); made in house; host or cells: transient transfection
Procedure Text: Amplex oxidation activity assay in the presence of bromide
Format: biochemical
Reported Conditions: 20 μM inhibitor, 50 mM bromide

The compound Oc1cc(O)cc(O)c1 [Phloroglucinol, 1,3,5-Trihydroxybenzene] , tested on Human peroxidasin (PXDN) (Homo sapiens), showed inhibition at 20 µM of > 95%

Log: Human peroxidasin (PXDN) (Homo sapiens), compound `NNC(=O)CNc1ccccc1F` , inhibition at 20 µM = 90%

For the compound `NCCc1ccc(O)c(O)c1` , the measured inhibition at 20 µM on Human peroxidasin (PXDN) (Homo sapiens) was 25 to 70%

Value (inhibition at 20 µM, Human peroxidasin (PXDN) (Homo sapiens)) for record `COc1ccc2c(C)nc(N=C(N)N)nc2c1` = 25 to 70%

====

Assayed System: Human peroxidasin (PXDN) (Homo sapiens, UniProt Q92626)
Construct: the four immunoglobulin domains and the peroxidase domain (amino acid residue 246-1314); made in house; host or cells: transient transfection
Sequence (Q92626 246-1314): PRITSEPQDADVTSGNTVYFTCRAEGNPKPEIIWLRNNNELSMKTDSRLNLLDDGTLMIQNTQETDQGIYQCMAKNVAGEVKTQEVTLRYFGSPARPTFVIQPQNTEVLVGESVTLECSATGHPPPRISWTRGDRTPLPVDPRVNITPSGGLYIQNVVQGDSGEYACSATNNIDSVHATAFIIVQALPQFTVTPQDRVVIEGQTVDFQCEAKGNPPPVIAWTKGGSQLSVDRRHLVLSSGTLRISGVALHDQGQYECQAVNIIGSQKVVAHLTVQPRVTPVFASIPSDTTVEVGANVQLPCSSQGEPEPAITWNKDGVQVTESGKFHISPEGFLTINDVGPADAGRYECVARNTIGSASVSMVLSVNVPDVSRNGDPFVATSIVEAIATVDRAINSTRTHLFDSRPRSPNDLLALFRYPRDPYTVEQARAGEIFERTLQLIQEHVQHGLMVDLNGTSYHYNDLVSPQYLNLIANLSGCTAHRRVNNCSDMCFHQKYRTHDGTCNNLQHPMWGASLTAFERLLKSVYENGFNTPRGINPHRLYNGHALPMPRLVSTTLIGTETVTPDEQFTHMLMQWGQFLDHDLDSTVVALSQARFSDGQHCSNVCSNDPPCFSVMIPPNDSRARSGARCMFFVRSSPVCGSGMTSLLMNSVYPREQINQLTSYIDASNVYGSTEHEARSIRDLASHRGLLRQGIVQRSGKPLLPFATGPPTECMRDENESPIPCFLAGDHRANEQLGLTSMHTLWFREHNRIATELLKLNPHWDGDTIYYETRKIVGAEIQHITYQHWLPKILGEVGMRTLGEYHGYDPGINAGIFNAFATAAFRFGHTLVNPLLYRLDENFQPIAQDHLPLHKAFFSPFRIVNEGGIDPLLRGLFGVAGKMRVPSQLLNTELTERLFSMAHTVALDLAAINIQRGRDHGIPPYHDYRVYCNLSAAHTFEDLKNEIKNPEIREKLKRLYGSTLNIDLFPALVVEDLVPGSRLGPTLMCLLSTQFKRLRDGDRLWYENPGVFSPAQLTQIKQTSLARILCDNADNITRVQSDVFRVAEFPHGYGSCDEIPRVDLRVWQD
Procedure Text: Amplex oxidation activity assay in the absence of bromide
Type: biochemical
Test Readout: IC50 (nM)
Expressed in nM, but write only the number.

Kindly note: Human peroxidasin (PXDN) (Homo sapiens, UniProt Q92626), COc1ccc2c(C)nc(N=C(N)N)nc2c1 [Quinazoline] , IC50 value reported: 200

Value (IC50, Human peroxidasin (PXDN) (Homo sapiens, UniProt Q92626)) for record NCCc1ccc(O)c(O)c1 [Dopamine] = 10

Form field, IC50 with Human peroxidasin (PXDN) (Homo sapiens, UniProt Q92626), item NNC(=O)CNc1ccccc1F [F-PAAH] : 2400

Reading of IC50 for Oc1cc(O)cc(O)c1 [Phloroglucinol, 1,3,5-Trihydroxybenzene] with Human peroxidasin (PXDN) (Homo sapiens, UniProt Q92626): 137
